Catalogue of pKb values
assay-system: Gastrin/cholecystokinin type B receptor (Rattus norvegicus) (UniProt P30553)
Sequence (P30553 whole entry): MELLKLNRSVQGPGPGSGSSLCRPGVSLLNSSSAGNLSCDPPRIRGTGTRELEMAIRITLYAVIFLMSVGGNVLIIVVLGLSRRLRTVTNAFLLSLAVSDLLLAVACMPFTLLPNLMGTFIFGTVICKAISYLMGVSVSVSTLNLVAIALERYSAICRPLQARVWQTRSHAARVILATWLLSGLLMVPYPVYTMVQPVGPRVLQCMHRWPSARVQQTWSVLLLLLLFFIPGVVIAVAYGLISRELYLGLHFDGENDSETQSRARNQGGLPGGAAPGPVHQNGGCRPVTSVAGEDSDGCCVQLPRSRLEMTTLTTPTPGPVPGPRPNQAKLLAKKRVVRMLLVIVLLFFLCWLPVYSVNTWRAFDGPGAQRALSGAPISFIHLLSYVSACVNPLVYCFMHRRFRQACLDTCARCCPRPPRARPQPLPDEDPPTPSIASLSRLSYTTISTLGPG
test-conditions: Stomach
Description: Antagonist activity at CCK2 receptor in stomach-lumen perfused immature rat
Residues, ends and D or L forms follow the SMILES beside them. *: point of attachment. NHPhenethyl = c1ccc(CCN*)cc1; Boc = CC(C)(C)OC(=O)*
Please reply with the value in numeric form only.

stdin: What pKb value was documented for this molecule, O=C(O)c1cccc(NC(=O)c2nc(C3CCCCC3)[nH]c2COC23CC4CC(CC(C4)C2)C3)c1 ?
stdout: 9.1

stdin: // pKb lookup, key: Nc1cccc2cc(C(=O)N[C@@H](Cc3ccccc3)C(=O)Nc3cc(C(=O)O)cc(C(=O)O)c3)c(C(=O)NCC34CC5CC(CC(C5)C3)C4)cc12
stdout: 9

stdin: For O=C(O)c1cc(NC(=O)[C@H](Cc2ccccc2)NC(=O)c2cc3sccc3cc2C(=O)NCC23CC4CC(CC(C4)C2)C3)cc(C(=O)O)c1 , what is its reported pKb?
stdout: 9.4

stdin: Consider the molecule shown here: O=C(O)c1cccc(NC(=O)c2nc(-c3ccccc3)[nH]c2CC23CC4CC(CC(C4)C2)C3)c1 What is its recorded pKb?
stdout: 6.6

stdin: Given the entry CN1C(=O)[C@H](NC(=O)Nc2cccc(-c3nnn[nH]3)c2)N=C(c2ccccc2)c2ccccc21 , report its measured pKb.
stdout: 8.4

stdin: What value of pKb has been reported for the following molecule? CC(C)C[C@H](NC(=O)[C@H](Cc1c[nH]c2ccccc12)NC(=O)OC(C)(C)C)C(=O)N[C@@H](CC(=O)O)C(=O)NCCc1ccccc1 (Boc-Trp-Leu-Asp-NHPhenethyl)
stdout: 6.9

stdin: Can you share its pKb? I mean this molecule: Cn1ccc2cc(C(=O)N[C@@H](Cc3ccccc3)C(=O)Nc3cc(C(=O)O)cc(C(=O)O)c3)c(C(=O)NCC34CC5CC(CC(C5)C3)C4)cc21
stdout: 9.8

stdin: // lookup pKb for Nc1cccc2cc(C(=O)NCC34CC5CC(CC(C5)C3)C4)c(C(=O)N[C@@H](Cc3ccccc3)C(=O)Nc3cc(C(=O)O)cc(C(=O)O)c3)cc12
stdout: 8.2

stdin: So what's the measured pKb for this one? CNc1cccc(NC(=O)N[C@@H]2N=C(c3ccccn3)c3ccccc3N(CC(=O)C(C)(C)C)C2=O)c1 [NETAZEPIDE]
stdout: 9.9

Value source: ChEMBL document CHEMBL1140745
